Assay: total protein half-life in vivo (active degradation + dilution); higher = more stable protein
Settings: E. coli NCM3722 delta-lon; growth: N-lim chemostat; doubling time 6 h
Attribute: total protein half-life in vivo
Quantity kind: total protein half-life in vivo (h)

{"columns": ["Residue codes", "Value observed"],
 "data": [
  ["MKLAVYSTKQYDKKYLQQVNESFGFELEFFDFLLTEKTAKTANGCEAVCIFVNDDGSRPVLEELKKHGVKYIALRCAGFNNVDLDAAKELGLKVVRVPAYDPEAVAEHAIGMMMTLNRRIHRAYQRTRDANFSLEGLTGFTMYGKTAGVIGTGKIGVAMLRILKGFGMRLLAFDPYPSAAALELGVEYVDLPTLFSESDVISLHCPLTPENYHLLNEAAFEQMKNGVMIVNTSRGALIDSQAAIEALKNQKIGSLGMDVYENERDLFFEDKSNDVIQDDVFRRLSACHNVLFTGHQAFLTAEALTSISQTTLQNLSNLEKGETCPNELV", 5.26],
  ["MIWKRKITLEALNAMGEGNMVGFLDIRFEHIGDDTLEATMPVDSRTKQPFGLLHGGASVVLAESIGSVAGYLCTEGEQKVVGLEINANHVRSAREGRVRGVCKPLHLGSRHQVWQIEIFDEKGRLCCSSRLTTAIL", 4.14],
  ["MNNHFKCIGIVGHPRHPTALTTHEMLYRWLCTKGYEVIVEQQIAHELQLKNVKTGTLAEIGQLADLAVVVGGDGNMLGAARTLARYDIKVIGINRGNLGFLTDLDPDNAQQQLADVLEGHYISEKRFLLEAQVCQQDCQKRISTAINEVVLHPGKVAHMIEFEVYIDEIFAFSQRSDGLIISTPTGSTAYSLSAGGPILTPSLDAITLVPMFPHTLSARPLVINSSSTIRLRFSHRRNDLEISCDSQIALPIQEGEDVLIRRCDYHLNLIHPKDYSYFNTLSTKLGWSKKLF [P0A7B3]", 6.6],
  ["MKVMRTTVATVVAATLSMSAFSVFAEASLTGAGATFPAPVYAKWADTYQKETGNKVNYQGIGSSGGVKQIIANTVDFGASDAPLSDEKLAQEGLFQFPTVIGGVVLAVNIPGLKSGELVLDGKTLGDIYLGKIKKWDDEAIAKLNPGLKLPSQNIAVVRRADGSGTSFVFTSYLAKVNEEWKNNVGTGSTVKWPIGLGGKGNDGIAAFVQRLPGAIGYVEYAYAKQNNLAYTKLISADGKPVSPTEENFANAAKGADWSKTFAQDLTNQKGEDAWPITSTTFILIHKDQKKPEQGTEVLKFFDWAYKTGAKQANDLDYASLPDSVVEQVRAAWKTNIKDSSGKPLY [P0AG82]", 6.31],
  ["MDKQSLHETAKRLALELPFVELCWPFGPEFDVFKIGGKIFMLSSELRGVPFINLKSDPQKSLLNQQIYPSIKPGYHMNKKHWISVYPGEEISEALLRDLINDSWNLVVDGLAKRDQKRVRPG [P0AAT2]", 6.9],
  ["MNYQNDDLRIKEIKELLPPVALLEKFPATENAANTVAHARKAIHKILKGNDDRLLVVIGPCSIHDPVAAKEYATRLLALREELKDELEIVMRVYFEKPRTTVGWKGLINDPHMDNSFQINDGLRIARKLLLDINDSGLPAAGEFLDMITPQYLADLMSWGAIGARTTESQVHRELASGLSCPVGFKNGTDGTIKVAIDAINAAGAPHCFLSVTKWGHSAIVNTSGNGDCHIILRGGKEPNYSAKHVAEVKEGLNKAGLPAQVMIDFSHANSSKQFKKQMDVCADVCQQIAGGEKAIIGVMVESHLVEGNQSLESGEPLAYGKSITDACIGWEDTDALLRQLANAVKARRG [P0AB91]", 3.62]
]}

These entries and their values trace back to the supplement of paper PMC11246515.
